System: PPARg DBDmut:RXRa IVT, anti-PPARg (DBD mutation: PPARg1 K132A/R137A, NR concentration 270 nM, RXRa partner concentration 90 nM)
Experiment summary: PBM binding z-score (relative to random genomic background probes); higher = stronger binding; sequences stand for … in GC…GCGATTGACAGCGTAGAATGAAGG
Parameter PBM binding z-score: see the listing below.
Measured metric: PBM binding z-score

Sequence entry | Measured metric | Result
TGATATAGGTAAAGGTGAAAGTCGAACGATATGA | PBM binding z-score | 1.32
ATTTCTAGGTAAAGTTCAGTGAAAGATCGATAGA | PBM binding z-score | 2.07
CGTCCAAGGTCAAAGGTCGGTGAAGAGATGACGG | PBM binding z-score | 0.166
AGAATGAGGTGATTAAGATCAGGGAATTGCGGTC | PBM binding z-score | 0.816
TCTTGTAGATCAAGCAGGTTAAGATAGCCTGAGT | PBM binding z-score | 0.115
CCTTACGGGTCACTGACAGGTTATGGCATTTGGA | PBM binding z-score | 0.363
TAGCCTGGGTCATGGGCCAGTATACCACGCGAAC | PBM binding z-score | 0.752
AGAACGAGGGCACGCTGAGTTGGTAGCAGAGTAG | PBM binding z-score | 0.349
GGGACGAGGGCAAGTTGATAGCAGAGTTTGATGG | PBM binding z-score | -0.115
TCGAGTAGGTTAGTCGTGGCATTCAGCCAACATA | PBM binding z-score | -0.875
TCGAGTAGGTTACCGATGGGGCATTCAGCTTTCT | PBM binding z-score | -0.681
CCAGACAGGTGAGAAGGTAACTCACCCTCGATTA | PBM binding z-score | -0.339

Data origin: the supplement of paper PMC6555819
